Below is a list of entries, each paired with its recorded log10 of microsomal CLint at 0.5 μM value.
assay_explanation: in vitro
experimental_conditions: mouse, microsomes, pH 7.4, MLM CLint (uL/min/mg), mouse liver microsomes
On a log10 scale: recorded microsomal CLint at 0.5 μM, unit µL/min/mg.

Completed entries (count: 7):
- smiles_text: "COCCN(Cc1ccccc1)S(=O)(=O)c1ccccc1OC(F)(F)F"
  log10 of microsomal CLint at 0.5 μM: 2.35
- smiles_text: "NS(=O)(=O)c1cc2c(cc1Cl)NCN(Cc1ccccc1)S2(=O)=O"
  log10 of microsomal CLint at 0.5 μM: 2.21
- smiles_text: "COc1ccc(OC)c(S(=O)(=O)N(Cc2ccc(F)cc2)Cc2cnc(OC)nc2OC)c1"
  log10 of microsomal CLint at 0.5 μM: 2.94
- smiles_text: "COc1ccc(C(=O)N2CCN(C)CC2)cc1S(=O)(=O)N(Cc1ccc(F)cc1)Cc1ccc(F)cc1"
  log10 of microsomal CLint at 0.5 μM: 3.35
- smiles_text: "COc1ccc(C(=O)NC2COC2)cc1S(=O)(=O)N(Cc1ccc(F)cc1)Cc1ccc(F)cc1"
  log10 of microsomal CLint at 0.5 μM: 2.60
- smiles_text: "COc1ccc(C(=O)N2CCOCC2)cc1S(=O)(=O)N(Cc1ccc(C(F)(F)F)nc1)CC(C)(C)C"
  log10 of microsomal CLint at 0.5 μM: 2.42
- smiles_text: "COc1ccc(C#N)cc1S(=O)(=O)N(Cc1ccc(C(F)(F)F)nc1)Cc1ccc(C(F)(F)F)nc1"
  log10 of microsomal CLint at 0.5 μM: 1.81

Here is the next item to consider.
Form field: reported log10 of microsomal CLint at 0.5 μM of "COc1ccc(C(=O)NCCO)cc1S(=O)(=O)N(Cc1ccc(F)cc1)Cc1ccc(F)cc1" 2.61

###

assay_explanation: in vitro
experimental_conditions: PAMPA
One threshold, 5 ×10⁻⁶ cm/s, splits the recorded Papp values: lower ones are Yes, equal or higher ones are No.

Study these solved cases before continuing.
- compound: "COc1ccc(OC)c(S(=O)(=O)N(CCN2CCOCC2)Cc2ccccc2)c1"
  class_name: "No"
- compound: "COc1ccc(OC)c(S(=O)(=O)N(Cc2ccc(F)cc2)c2ccc(F)cn2)c1"
  class_name: "No"
- compound: "CN(C)CCN(Cc1ccccc1)S(=O)(=O)c1ccccc1S(C)(=O)=O"
  class_name: "Yes"
- compound: "COc1ncccc1S(=O)(=O)N(Cc1ccccc1)Cc1ccccc1"
  class_name: "Yes"
- compound: "O=c1[nH]cccc1S(=O)(=O)N(Cc1ccc(F)cc1)Cc1ccc(F)cc1"
  class_name: "No"
- compound: "COC(=O)C(Cc1ccccc1)NS(=O)(=O)c1ccccc1Br (stereo not shown)"
  class_name: "No"
- compound: "COc1ccc(C(=O)N2CCOCC2)cc1S(=O)(=O)N(Cc1ccccc1)Cc1ccccc1"
  class_name: "No"
- compound: "O=C1c2ccccc2S(=O)(=O)N(Cc2ccccc2)C1Cc1ccccc1 (stereo not shown)"
  class_name: "Yes"
- compound: "O=S(=O)(c1cc(F)ccc1F)N(CCO)Cc1ccccc1"
  class_name: "No"
- compound: "CN(C)CCOc1ccc(F)cc1S(=O)(=O)N(Cc1ccc(F)cc1)Cc1ccc(F)cc1"
  class_name: "Yes"

hey, is Papp for "COc1ccc(OC)c(S(=O)(=O)N(Cc2ccc(F)cc2)Cc2ncccn2)c1" lower than 5 ×10⁻⁶ cm/s or not? No

hey, is Papp for "COc1ccc(C#N)cc1S(=O)(=O)N(Cc1ccccc1)Cc1ccccc1" lower than 5 ×10⁻⁶ cm/s or not? Yes

hey, is Papp for "C=C(c1ccc(F)cc1)N(Cc1ccccc1)S(=O)(=O)c1cc(Cl)ccc1O" lower than 5 ×10⁻⁶ cm/s or not? Yes

hey, is Papp for O=S(=O)(c1ccccc1Br)N(Cc1ccccc1)C(CO)Cc1ccccc1 (stereo not shown) lower than 5 ×10⁻⁶ cm/s or not? Yes

hey, is Papp for "COc1ccc(OC)c(S(=O)(=O)N(Cc2ccc(F)cc2)Cc2ccccn2)c1" lower than 5 ×10⁻⁶ cm/s or not? No

hey, is Papp for "COc1ccc(OC)c(S(=O)(=O)N2CCC(c3ccccc3)CC2)c1" lower than 5 ×10⁻⁶ cm/s or not? No

hey, is Papp for "COc1ccc(CN2CCCC2)cc1S(=O)(=O)N(Cc1ccc(F)cc1)Cc1ccc(F)cc1" lower than 5 ×10⁻⁶ cm/s or not? Yes

hey, is Papp for "O=S(=O)(c1cccnc1OC(F)F)N(Cc1ccc(F)cc1)Cc1ccc(F)cc1" lower than 5 ×10⁻⁶ cm/s or not? Yes

hey, is Papp for "CNc1ncccc1S(=O)(=O)N(Cc1ccc(F)cc1)Cc1ccc(F)cc1" lower than 5 ×10⁻⁶ cm/s or not? Yes

hey, is Papp for O=S(=O)(NC(CO)Cc1ccccc1)c1ccccc1Br (stereo not shown) lower than 5 ×10⁻⁶ cm/s or not? No

hey, is Papp for O=S(=O)(NC(CO)Cc1ccccc1)c1cc(F)ccc1F (stereo not shown) lower than 5 ×10⁻⁶ cm/s or not? No

hey, is Papp for "O=S(=O)(c1cc(F)ccc1F)N(Cc1ccccc1)C(CO)CO" lower than 5 ×10⁻⁶ cm/s or not? No

hey, is Papp for "COc1ccc(Cl)cc1S(=O)(=O)N(CC(=O)c1ccc(F)cc1)Cc1ccccc1" lower than 5 ×10⁻⁶ cm/s or not? Yes

hey, is Papp for "COc1ccc(C(=O)O)cc1S(=O)(=O)N(Cc1ccccc1)Cc1ccccc1" lower than 5 ×10⁻⁶ cm/s or not? No

hey, is Papp for "CN(C)CCN(Cc1ccccc1)S(=O)(=O)c1ccc(N2C(=O)CCC2=O)cc1" lower than 5 ×10⁻⁶ cm/s or not? Yes

hey, is Papp for "CCCCOc1ncccc1S(=O)(=O)NCc1ccc(F)cc1" lower than 5 ×10⁻⁶ cm/s or not? No

###

assay_explanation: physchem
experimental_conditions: HPLC, Ascentis Express RP Amide column, pH 7.4, eLogD
One threshold, 4, splits the recorded chromatographic logD values: lower ones are true (1), equal or higher ones are false (0).

- compound: "O=S(=O)(NCc1ccccc1)c1cc(F)ccc1F"
  class_name: "true (1)"
- compound: "CCC(Cc1ccccc1)Sc1nc(C)cc(C)c1C#N (stereo not shown)"
  class_name: "false (0)"
- compound: "COc1ccc(OC)c(S(=O)(=O)NCc2ccccc2)c1"
  class_name: "true (1)"
- compound: "CCN(Cc1ccccc1)S(=O)(=O)c1ccc(NC(C)=O)cc1"
  class_name: "true (1)"
- compound: "COc1ccc(OC)c(S(=O)(=O)N(CCO)Cc2ccccc2)c1"
  class_name: "true (1)"

In the following, a different compound is considered.
hey, is chromatographic logD for "COCCN(Cc1ccccc1)S(=O)(=O)c1ccccc1" lower than 4 or not? true (1)

###

assay_explanation: in vitro
experimental_conditions: human, microsomes, pH 7.4, HLM CLint, human liver microsomes
property_measured: microsomal CLint at 0.5 μM

Completed entries (count: 2):
- smiles_text: "CN(C)CCN(Cc1ccccc1)S(=O)(=O)c1ccc(N2C(=O)CCC2=O)cc1"
  microsomal CLint at 0.5 μM: "< 23 µL/min/mg"
- smiles_text: "COCCN(Cc1ccc(F)cc1)S(=O)(=O)c1cc(C#N)ccc1OC"
  microsomal CLint at 0.5 μM: "< 23 µL/min/mg"

Form field: reported microsomal CLint at 0.5 μM of "CN(C)CCN(Cc1ccccc1)S(=O)(=O)c1ccc(NC(=O)CCCO)cc1" < 23 µL/min/mg

###

assay_explanation: physchem
experimental_conditions: HPLC, Ascentis Express RP Amide column, pH 7.4, eLogD, experimental
Class field: derived from chromatographic logD; ranges small value: < 3; mid value: ≥ 3 and < 4; large value: ≥ 4

Study these solved cases before continuing.
- compound: "O=C1c2ccccc2S(=O)(=O)N(Cc2ccccc2)C1Cc1ccccc1 (stereo not shown)"
  class_name: "mid value"
- compound: "COc1ccc(Cl)cc1S(=O)(=O)N(Cc1ccccc1)CC(O)c1ccc(F)cc1 (stereo not shown)"
  class_name: "mid value"
- compound: "COc1ccc(CN(Cc2ccc(F)cc2)S(=O)(=O)c2cc(F)ccc2OCC[N+](C)(C)CC(=O)O)cc1"
  class_name: "mid value"
- compound: "COc1ccc(CN2CCCC2)cc1S(=O)(=O)N(Cc1ccc(F)cc1)Cc1ccc(F)cc1"
  class_name: "large value"
- compound: "Nc1cc(Cl)c(S(N)(=O)=O)cc1S(=O)(=O)N(Cc1ccccc1)Cc1ccccc1"
  class_name: "mid value"
- compound: "N#Cc1ccc(O)c(S(=O)(=O)N(Cc2ccc(F)cc2)Cc2ccc(F)cc2)c1"
  class_name: "mid value"

Kindly state the category for this compound: "COc1ccc(CN(Cc2ccc(F)cc2)S(=O)(=O)c2cc(OC)ccc2OC)cc1" mid value

Kindly state the category for this compound: "O=[N+]([O-])c1ccc(Cl)cc1S(=O)(=O)N(Cc1ccccc1)Cc1ccc(F)cc1" large value

Kindly state the category for this compound: "COC(=O)[C@H](CO)NS(=O)(=O)c1cc(Cl)ccc1OC" small value

Kindly state the category for this compound: "C=C(c1ccc(F)cc1)N(Cc1ccccc1)S(=O)(=O)c1cc(Cl)ccc1O" large value

Kindly state the category for this compound: "CN(C)CCN(Cc1ccccc1)S(=O)(=O)c1ccc(NC(=O)CCCO)cc1" small value

Kindly state the category for this compound: "COCCN(Cc1ccccc1)S(=O)(=O)c1cc(C(=O)NC2COC2)ccc1OC" small value

Kindly state the category for this compound: COc1ccc(C(=O)N2CCOCC2)cc1S(=O)(=O)N(Cc1ccc(C(F)(F)F)nc1)C(C)c1ccc(F)cc1 (stereo not shown) mid value

Kindly state the category for this compound: "O=S(=O)(c1cccnc1OC(F)F)N(Cc1ccc(F)cc1)Cc1ccc(F)cc1" large value

Kindly state the category for this compound: "CCN(Cc1ccc(F)cc1)S(=O)(=O)c1cc(C(=O)N2CCOCC2)ccc1OC" small value

Kindly state the category for this compound: "NS(=O)(=O)c1cc2c(cc1Cl)NCN(Cc1ccccc1)S2(=O)=O" small value

Kindly state the category for this compound: COCCN(Cc1ccccc1)S(=O)(=O)c1c(OC)ccc(Cl)c1[S+](C)[O-] (stereo not shown) small value

Kindly state the category for this compound: COc1ccc(OC)c(S(=O)(=O)N(Cc2ccccc2)C2CCCN(C(C)=O)C2)c1 (stereo not shown) mid value

Kindly state the category for this compound: COC(=O)C(Cc1ccccc1)NS(=O)(=O)c1ccccc1Br (stereo not shown) mid value

Kindly state the category for this compound: "COc1ccc(OC)c(S(=O)(=O)N(Cc2ccc(F)cc2)Cc2oc(C)nc2C)c1" mid value

Kindly state the category for this compound: "COc1ccc(OC)c(S(=O)(=O)N(Cc2ncccn2)Cc2ncccn2)c1" small value

Kindly state the category for this compound: "COc1ccc(Cl)cc1S(=O)(=O)N(CC(=O)c1ccc(F)cc1)Cc1ccccc1" large value
